Kindly supply the reported cell viability values for the records listed here.
# Tested on: U2OS
# experiment summary: cell viability relative to DMSO; higher = less toxic
# conditions: 72 h; 10 nM
Give bare numbers, in %.

Take a look at these entries with their results.
NCCc1c[nH]cn1 :: 99.7
O=C(Nc1ccccc1C(=O)Nc1ccc(CCO)cc1)c1ccc([N+](=O)[O-])cc1 :: 104
NC(=O)NO [hydroxyurea] :: 98.2

State the recorded cell viability for every item in the following list.
1. Cc1cccc(C)c1-n1c(=O)c2cnc(Nc3ccc(N4CCN(C)CC4)cc3)nc2n2c3ccccc3nc12
2. CO[C@]12C[C@@H](COC(=O)c3cncc(Br)c3)CN(C)[C@@H]1Cc1cn(C)c3cccc2c13

OUT:
98.2
94.8

###

# Tested on: HepG2
# experiment summary: drug sensitivity score (DSS) for viability; higher = more toxic; extreme values may be limits of the assay
# conditions: 72 h
What drug sensitivity score was measured for each of the following?
Give bare numbers.

Here's what some known entries look like.
CC1(C)CN(C(=O)c2ccc(-c3cccc4nc(NC(=O)C5CC5)nn34)cc2)C1 :: 0
Oc1c(I)cc(I)cc1I :: 0

Provide drug sensitivity score values for the following items, in order.
1. CS(=O)(=O)OCOS(C)(=O)=O
2. CC(C)(C)c1ccc(C(=O)Nc2cn3cc(-n4ccnc4)ccc3n2)cc1
3. NS(=O)(=O)c1cc(Cl)c(Cl)c(S(N)(=O)=O)c1 [diclofenamide]
4. N#Cc1c(N(CC(=O)O)CC(=O)O)sc(C(=O)O)c1CC(=O)O [Strontium Ranelate]
5. N[C@@H](CS(=O)O)C(=O)O

OUT:
0
0.6
0
0
0.2

###

I'd appreciate it if you could supply cell viability values for the items below.
# Test system: Calu-3
# experiment summary: cell viability relative to DMSO; higher = less toxic
# conditions: 72 h; 1000 nM
Answers without a unit are incomplete; give the number and then its unit.

Example entries and their recorded answers appear below.
COc1cccc(C=NCCN=Cc2cccc(OC)c2[O-])c1[O-].[Cl-].[Mn+3] :: 94%
CN1C(=O)CN=C(c2ccccc2)c2cc(Cl)ccc21 :: 98%
Cc1c(Cl)c(C)[n+]([O-])c(Cl)c1-c1noc(-c2cc(O)c(O)c([N+](=O)[O-])c2)n1 :: 102%
CN1CCN(C(=O)C2C(C(=O)O)[C@H]3CC[C@@H]2O3)CC1 (some centres undefined) :: 92.8%
OC[C@H]1O[C@@H](Oc2cc3c(O)cc(O)cc3[o+]c2-c2ccc(O)c(O)c2)[C@H](O)[C@@H](O)[C@@H]1O :: 102%
C[C@H](Nc1cc2c(-c3ccc4c(c3)OCO4)noc2cn1)c1ccccc1 :: 97.2%
CC1CC(OC(=O)C(O)c2ccccc2)CC(C)(C)N1C (centres undefined) :: 95%
Nc1ncc2c(n1)CC(c1ccco1)CC2=O (centres undefined) :: 101%

# next molecule below
IN: cell viability for CC(C)c1c(NC(=O)Nc2ccc(Cl)cc2)c(=O)n(-c2ccccc2)n1C ?
OUT: 105%

###

# Tested on: U2OS
# experiment summary: relative viability EC50 (midpoint between 100% and the lowest measured viability); higher = less toxic
# conditions: 72 h
Consider the following compounds; for each one, report its relative viability EC50.

N#Cc1ccc2[nH]cc(CCCCN3CCN(c4ccc5oc(C(N)=O)cc5c4)CC3)c2c1 :: > 10 µM
C[C@]12CC[C@H]3[C@@H](CC[C@]4(O)C[C@@H](O)CC[C@]34C=O)[C@@]1(O)CC[C@@H]2C1=CC(=O)OC1 :: 1.43 µM
COC1=C[C@@H]2[C@@H]3Cc4ccc(OC)c(O)c4[C@]2(CCN3C)CC1=O :: > 10 µM
O=C(Nc1ccccc1-c1cn2c(CN3CCNCC3)csc2n1)c1cnc2ccccc2n1 :: 3.3 µM
COc1cccc([C@@H](C)NCCCc2ccccc2Cl)c1 :: > 10 µM

Provide each entry's relative viability EC50 from the list below.
1. N[C@@H](CS(=O)O)C(=O)O
2. C[N+]1([O-])[C@@H]2C[C@@H](OC(=O)[C@H](CO)c3ccccc3)C[C@H]1[C@@H]1O[C@@H]12 (some centres not stated) [scopolamine-N-oxide]
3. CC/C=C\C/C=C\C/C=C\C/C=C\C/C=C\C/C=C\CCC(=O)OCC
4. N#Cc1ccccc1-c1cc(-c2ccccn2)cn(-c2ccccc2)c1=O
5. C[N+](C)(C)CCOC(N)=O

OUT:
> 10 µM
> 10 µM
> 10 µM
> 10 µM
> 10 µM

Below is a list of compounds. For each, state its recorded relative viability EC50.
1. CCCc1nc2c(C)cc(-c3nc4ccccc4n3C)cc2n1Cc1ccc(-c2ccccc2C(=O)O)cc1
2. Cc1c(Cc2ccc3ccccc3n2)c2cc(F)ccc2n1CC(=O)O

OUT:
["> 10 µM", "> 10 µM"]

###

# Test system: Caco-2
# experiment summary: cell viability relative to DMSO; higher = less toxic
# conditions: 72 h; 100 nM
measure: cell viability (%)
Numbers only, in %.

Below are worked cases with known answers.
CCNC(C)CN1CCc2c(c(=O)oc3ccccc23)C1 (configuration not stated) :: 103
O=c1c(-n2ccnn2)c[nH]n1-c1cc(N2CCOCC2)ncn1 :: 100
CC(C)N(CCc1c[nH]c2ccccc12)C(C)C :: 107
O=C1Nc2cc(Cl)c(Cl)cc2N2CCNC[C@H]12 :: 102
Cc1cccc(C)c1NC(=O)CC12CCCN1CCC2 [pilsicainide] :: 95

Quick batch: cell viability for everything below.
1. CC(C)(N)c1cc(C(=O)N[C@@H]2CCc3ccc(Oc4ccnc5c4CCC(=O)N5)cc3C2)cc(C(F)(F)F)c1
2. NCCc1c[nH]cn1
3. CN1c2ccccc2C(NCCCCCCC(=O)O)c2ccc(Cl)cc2S1(=O)=O (configuration not stated)
4. COc1nc(N)nc2c1ncn2[C@@H]1O[C@H](CO)[C@@H](O)[C@@H]1O
5. C[C@@]1(CO)[C@H](O)CC[C@@]2(C)[C@H]1CC[C@H]1C[C@@H]3C[C@@]12CC[C@]3(O)CO
6. C[C@H](NCc1ccc(OCc2ccccc2F)cc1)C(N)=O [priralfinamide]
7. C[C@H]1[C@H](OC(=O)CCC(=O)O)O[C@@H]2O[C@@]3(C)CC[C@H]4[C@H](C)CC[C@@H]1[C@@]24OO3 [artesunate]

OUT:
[104, 101, 107, 101, 80, 91.6, 98.3]

###

# Tested on: Vero E6
# experiment summary: cell viability relative to DMSO; higher = less toxic
# conditions: 72 h; 10000 nM
Answer each item with its documented cell viability.
One number for each entry, in %.

Recorded results for 4 compounds are shown here.
C[C@]12CCC(=O)C=C1C=C[C@@H]1[C@@H]2CC[C@@]2(C)[C@H]1CC[C@@]21CCC(=O)O1 :: 101
CCN(CC)CC1CCCCN1CC(=O)N1c2ccccc2C(=O)Nc2cccnc21 (stereo not given) :: 99.5
N=C(N)NC(=O)Cc1c(Cl)cccc1Cl :: 89.8
CCCCC(=O)O[C@H]1CC[C@H]2[C@@H]3CCc4cc(O)ccc4[C@H]3CC[C@]12C [ESTRADIOL VALERATE] :: 100

IN: // cell viability lookup, key: CCOC(=O)C1=C(C)NC(=S)NC1c1cccc(O)c1 (stereo not given)
OUT: 97.9

###

# Tested on: HepG2
# experiment summary: cell viability relative to DMSO; higher = less toxic
# conditions: 72 h; 100 nM
Provide the recorded cell viability for the entries that follow.
Answers are plain numbers, in %.

Below, each entry is followed by its recorded cell viability result.
CC(C)C[C@H](NC(=O)N1CCCCCC1)C(=O)N[C@H](Cc1cn(C)c2ccccc12)C(=O)N[C@H](Cc1ccccn1)C(=O)O :: 99
CCN(CC)Cc1nccn1-c1ccc([N+](=O)[O-])cc1C(=O)c1ccccc1Cl :: 98.4
N=C(N)NCCC[C@H](NC(=O)[C@@H]1CCCN1C(=O)[C@@H]1CSSC[C@H](N)C(=O)N[C@@H](Cc2ccc(O)cc2)C(=O)N[C@@H](Cc2ccccc2)C(=O)N[C@@H](CCC(N)=O)C(=O)N[C@@H](CC(N)=O)C(=O)N1)C(=O)NCC(N)=O :: 86.3

Would you be so kind as to report cell viability for each listed record?
1. CCOC(=O)[C@@H](N)Cc1ccc(O)c(O)c1
2. Clc1ccc(C(OCCN2CCCCC2)c2ccccc2)cc1 (stereo unspecified)
3. CC(C)c1c(NC(=O)Nc2ccc(Cl)cc2)c(=O)n(-c2ccccc2)n1C
4. O[C@@H](CN1CCNCC1)Cn1c2ccc(Br)cc2c2cc(Br)ccc21

OUT:
[88.1, 115, 101, 90.4]

Give cell viability for all compounds that follow.
1. Nc1ncnc2[nH]nc(Nc3ccc(F)cc3)c12
2. COC(=O)[C@]12CCC(C)(C)C[C@H]1[C@H]1C(=O)C=C3[C@@]4(C)C=C(C#N)C(=O)C(C)(C)[C@@H]4CC[C@@]3(C)[C@]1(C)CC2
3. C[C@@H](CN1CCC(n2c(=O)[nH]c3cc(Cl)ccc32)CC1)NC(=O)c1ccc2ccccc2c1
4. CN1C(=O)CN=C(c2ccccc2)c2cc(Cl)ccc21
5. C[N+]1([O-])[C@@H]2CC[C@H]1C[C@@H](OC(=O)C(CO)c1ccccc1)C2 (stereo partly specified) [atropine-oxide]

OUT:
[108, 87.4, 85.6, 101, 95.8]

For every listed record, write down its cell viability.
1. COc1cc(NC(=O)c2ccccn2)ccc1Cl
2. COc1ccc([C@@H]2CC(=O)c3c(O)cc(O[C@@H]4O[C@H](CO)[C@@H](O)[C@H](O)[C@H]4O[C@@H]4O[C@@H](C)[C@H](O)[C@@H](O)[C@H]4O)cc3O2)cc1O
3. CN(C)c1ccc2c(c1)Sc1cc(N(C)C)ccc1N2
4. O=C1c2c(O)cccc2Cc2cccc(O)c21

OUT:
[91, 103, 93.6, 119]
